The origin of these recorded values is patent US20070128217A1.

Tested on: control sera (pooled serum of ten healthy LUMC hospital workers; commercial negative donor pooled serum from the Dutch bloodbank)
Type: binding, human
Response field label: string, one of 1 (Control Serum Blood-Bank Looped peptides strictly below 0.5) or -1.

Example entries and their recorded answers appear below.
- Record sequence: "KTFPPTEPKKDKKKK"
  Category label: 1
- Record sequence: "AQFAPSASAFFGMSR"
  Category label: -1
- Record sequence: "QFKDNVILLNKHIDA"
  Category label: -1
- Record sequence: "SASAFFGMSRIGMEV"
  Category label: -1
- Record sequence: "GTWLTYHGAIKLDDK"
  Category label: 1

Query string: Could you please tell me whether Control Serum Blood-Bank Looped peptides recorded for PSASAFFGMSRIGME is less than 0.5?
Result string: 1

Query string: In plain terms, does NVILLNKHIDAYKTF come in under 0.5 for Control Serum Blood-Bank Looped peptides?
Result string: -1

* * *

Attribute: Binding of Control Serum Blood-Bank to Looped peptides
Tested on: control sera (pooled serum of ten healthy LUMC hospital workers; commercial negative donor pooled serum from the Dutch bloodbank)
Type: binding, human
Set-up: unit not given here
Reply with the value as a number alone.

Sample answers from the record:
- Record sequence: "IIMRCWLCWKCKSKN"
  Readout value: 0.6
- Record sequence: "FTTSLSLHKLLQTLV"
  Readout value: 2.0
- Record sequence: "NVSLVKPTVYVYSRV"
  Readout value: 0.7
- Record sequence: "KQYNVTQAFGRRGPE"
  Readout value: 0.5
- Record sequence: "GMEAQFLYLYALIYF"
  Readout value: 0.5

For this sequence ( AQPVKIDNASPASTV ), measured Binding of Control Serum Blood-Bank to Looped peptides is 1.0

Measured Binding of Control Serum Blood-Bank to Looped peptides, PYNSVTDTIVVTEGD : 0.4

Summary for this sequence, TSCELYHYQECVRGT : Binding of Control Serum Blood-Bank to Looped peptides is 0.8

Binding of Control Serum Blood-Bank to Looped peptides reported for this sequence VVTEGDGISTPKLKE : 0.3

* * *

Tested on: antibodies in sera from SARS patients (sera 1a, 1b, 2, 6, 37, 62, London, SARS-yellow, SARS-green)
Format: binding, human
Set-up: unit not given here
Readout: Binding of serum 37 to looped/cyclic peptides of protein M of SARS-CoV Urbani
Keep the answer to the number alone.

Here are 5 sequences together with their reported answers.
- Record sequence: "PETNILLNVPLRGTI"
  Readout value: 0.8
- Record sequence: "ELKQLLEQWNLVIGF"
  Readout value: 0.7
- Record sequence: "WIMLLQFAYSNRNRF"
  Readout value: 0.4
- Record sequence: "ATSRTLSYYKLGASQ"
  Readout value: 0.6
- Record sequence: "DSGFAAYNRYRIGNY"
  Readout value: 0.7

Entry under test: RYRIGNYKLNTDHAG . Its Binding of serum 37 to looped/cyclic peptides of protein M of SARS-CoV Urbani was 0.6

Value of Binding of serum 37 to looped/cyclic peptides of protein M of SARS-CoV Urbani reported for the sequence IMLLQFAYSNRNRFL is 0.6

* * *

Test system: antibodies in sera from SARS patients (sera 1a, 1b, 2, 6, 37, 62, London, SARS-yellow, SARS-green)
Type: binding, human
Readout: Binding of serum London to linear peptides of protein X4 of SARS-CoV Urbani
Simply state the number, no unit and no words.

These solved cases illustrate the format of a correct answer.
- Record sequence: "HFAFACADGTRHTYQ"
  Readout value: 0.6
- Record sequence: "SPKLFIRQEEVQQEL"
  Readout value: 0.7
- Record sequence: "FTSCELYHYQECVRG"
  Readout value: 0.9

Data point: LTCTSTHFAFACADG ; Binding of serum London to linear peptides of protein X4 of SARS-CoV Urbani = 0.8

Entry KLFIRQEEVQQELYS ; Binding of serum London to linear peptides of protein X4 of SARS-CoV Urbani = 0.7

Entry under test: ALTCTSTHFAFACAD . Its Binding of serum London to linear peptides of protein X4 of SARS-CoV Urbani was 0.8

Per the record, LRARSVSPKLFIRQE has Binding of serum London to linear peptides of protein X4 of SARS-CoV Urbani of 0.8

Field Binding of serum London to linear peptides of protein X4 of SARS-CoV Urbani (entry GTRHTYQLRARSVSP ) reads 0.8

* * *

Test system: antibodies in sera from SARS patients (sera 1a, 1b, 2, 6, 37, 62, London, SARS-yellow, SARS-green)
Type: binding, human
Readout: Binding of serum SARS-green to linear peptides of protein X1 of SARS-CoV Urbani
Lab note: write the figure by itself, no unit.

Here is how some sequences turned out for Binding of serum SARS-green to linear peptides of protein X1 of SARS-CoV Urbani.
- Record sequence: "CNLLLLFVTIYSHLL"
  Readout value: 0.1
- Record sequence: "VTDTIVVTEGDGIST"
  Readout value: 0.1
- Record sequence: "LFMRFFTLGSITAQP"
  Readout value: 0.2
- Record sequence: "ALIYFLQCINACRII"
  Readout value: 0.1
- Record sequence: "KDYVVVHGYFTEVYY"
  Readout value: 0.2
- Record sequence: "NSVTDTIVVTEGDGI"
  Readout value: 0.2
- Record sequence: "ICNLLLLFVTIYSHL"
  Readout value: 0.3
- Record sequence: "LESTQITTDTGIENA"
  Readout value: 0.1

Value of measured Binding of serum SARS-green to linear peptides of protein X1 of SARS-CoV Urbani for the entry VTIYSHLLLVAAGME : 0.3

In plain terms, TEVYYQLESTQITTD has a documented Binding of serum SARS-green to linear peptides of protein X1 of SARS-CoV Urbani of 0.5

Recorded result, NLLLLFVTIYSHLLL , Binding of serum SARS-green to linear peptides of protein X1 of SARS-CoV Urbani: 0.1

* * *

Tested on: antibodies in sera from SARS patients (sera 1a, 1b, 2, 6, 37, 62, London, SARS-yellow, SARS-green)
Assay type: binding, human
Parameters: unit not given here
# reported Binding of serum 37 to linear peptides of protein X4 of SARS-CoV Urbani; entries follow
Would you mind answering with just the numeric figure?

- Record sequence: "FLIVAALVFLILCFT"
  Readout value: 0.7
- Record sequence: "GTRHTYQLRARSVSP"
  Readout value: 0.8
- Record sequence: "VSPKLFIRQEEVQQE"
  Readout value: 0.7
- Record sequence: "LYSPLFLIVAALVFL"
  Readout value: 0.6
- Record sequence: "RHTYQLRARSVSPKL"
  Readout value: 0.9

Item: FLTLIVFTSCELYHY | Binding of serum 37 to linear peptides of protein X4 of SARS-CoV Urbani: 0.7

Kindly note the recorded Binding of serum 37 to linear peptides of protein X4 of SARS-CoV Urbani for QEEVQQELYSPLFLI , which is 0.8

Lookup result for DGTRHTYQLRARSVS ; measured Binding of serum 37 to linear peptides of protein X4 of SARS-CoV Urbani: 0.8

Kindly note the recorded Binding of serum 37 to linear peptides of protein X4 of SARS-CoV Urbani for TSCELYHYQECVRGT , which is 0.7

Looking up SPKLFIRQEEVQQEL , I see its Binding of serum 37 to linear peptides of protein X4 of SARS-CoV Urbani listed as 0.7

Lab note: measured Binding of serum 37 to linear peptides of protein X4 of SARS-CoV Urbani of ELYSPLFLIVAALVF was 0.6

Kindly note the recorded Binding of serum 37 to linear peptides of protein X4 of SARS-CoV Urbani for FAFACADGTRHTYQL , which is 0.6

* * *

Test system: antibodies in sera from SARS patients (sera 1a, 1b, 2, 6, 37, 62, London, SARS-yellow, SARS-green)
Format: binding, human
Readout: Binding of serum SARS-yellow to linear peptide (PEPSCAN-ELISA)
A bare number is all that is needed in reply.

- Record sequence: "SRSSSRSRGNSRNST"
  Readout value: 0.7
- Record sequence: "TQGNFGDQDLIRQGT"
  Readout value: 0.6
- Record sequence: "QGNFGDQDLIRQGTD"
  Readout value: 0.8
- Record sequence: "TQAFGRRGPEQTQGN"
  Readout value: 0.5
- Record sequence: "RGNSRNSTPGSSRGN"
  Readout value: 0.8
- Record sequence: "SRGNSPARMASGGGE"
  Readout value: 0.6
- Record sequence: "QASSRSSSRSRGNSR"
  Readout value: 0.6
- Record sequence: "NQLESKVSGKGQQQQ"
  Readout value: 0.7

The measured Binding of serum SARS-yellow to linear peptide (PEPSCAN-ELISA) associated with ATKQYNVTQAFGRRG reads 0.8

Quick note, Binding of serum SARS-yellow to linear peptide (PEPSCAN-ELISA) for ALALLLLDRLNQLES landed at 0.5
